# TARGET OF ASSAY: Nitric oxide synthase 1 (Rattus norvegicus)
# Sequence (P29476 whole entry): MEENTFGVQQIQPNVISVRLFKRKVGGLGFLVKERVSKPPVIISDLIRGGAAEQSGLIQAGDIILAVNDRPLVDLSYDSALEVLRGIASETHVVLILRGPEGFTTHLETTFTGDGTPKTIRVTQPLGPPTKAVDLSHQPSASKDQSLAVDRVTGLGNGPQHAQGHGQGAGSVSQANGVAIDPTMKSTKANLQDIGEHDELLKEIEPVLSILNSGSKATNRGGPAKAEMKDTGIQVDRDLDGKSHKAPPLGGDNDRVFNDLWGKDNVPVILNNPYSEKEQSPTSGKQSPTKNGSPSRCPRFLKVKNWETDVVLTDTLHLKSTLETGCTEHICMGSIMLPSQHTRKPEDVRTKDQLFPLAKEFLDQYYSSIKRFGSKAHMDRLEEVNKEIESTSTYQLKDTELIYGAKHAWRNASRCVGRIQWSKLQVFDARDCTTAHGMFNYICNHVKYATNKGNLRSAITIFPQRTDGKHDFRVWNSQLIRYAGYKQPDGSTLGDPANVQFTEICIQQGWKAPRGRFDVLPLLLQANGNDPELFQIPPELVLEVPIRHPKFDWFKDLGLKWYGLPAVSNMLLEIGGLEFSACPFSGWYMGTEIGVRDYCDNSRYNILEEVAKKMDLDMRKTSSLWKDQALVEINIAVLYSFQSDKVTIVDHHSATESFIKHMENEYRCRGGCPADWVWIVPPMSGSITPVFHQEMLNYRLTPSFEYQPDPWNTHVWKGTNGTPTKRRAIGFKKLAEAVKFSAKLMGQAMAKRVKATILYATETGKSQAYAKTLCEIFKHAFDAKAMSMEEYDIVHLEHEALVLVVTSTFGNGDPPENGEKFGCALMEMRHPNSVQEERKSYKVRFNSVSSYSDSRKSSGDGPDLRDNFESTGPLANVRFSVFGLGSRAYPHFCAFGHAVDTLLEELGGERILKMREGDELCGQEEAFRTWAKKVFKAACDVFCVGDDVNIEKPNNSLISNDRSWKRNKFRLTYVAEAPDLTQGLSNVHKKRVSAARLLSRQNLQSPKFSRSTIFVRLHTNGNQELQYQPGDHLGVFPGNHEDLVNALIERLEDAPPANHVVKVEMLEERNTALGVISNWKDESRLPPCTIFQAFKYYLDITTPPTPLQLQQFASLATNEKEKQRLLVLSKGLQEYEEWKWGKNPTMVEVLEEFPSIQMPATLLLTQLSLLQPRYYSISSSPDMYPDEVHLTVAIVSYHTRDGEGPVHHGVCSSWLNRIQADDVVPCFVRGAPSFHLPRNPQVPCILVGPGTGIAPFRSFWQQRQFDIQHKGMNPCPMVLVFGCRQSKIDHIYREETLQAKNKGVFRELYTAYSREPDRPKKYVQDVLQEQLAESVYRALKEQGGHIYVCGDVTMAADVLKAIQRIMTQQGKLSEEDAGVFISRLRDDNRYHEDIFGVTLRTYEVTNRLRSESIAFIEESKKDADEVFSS
# METHOD NOTES: Inhibitory activity against recombinant rat nNOS.
MEASURED ENDPOINT: pKi
Remember, pKi is on a log scale: it is -log10 of the molar concentration.

Known results for molecules:
N=C(NCCC[C@H](N)C(=O)NCCCN)N[N+](=O)[O-] : 6.34
N=C(NCCC[C@H](N)C(=O)NCCN)N[N+](=O)[O-] : 6.27

Now turn to the next molecule.
IN: Field request: pKi | item: `N=C(NCCC[C@H](N)C(=O)NCCCCN)N[N+](=O)[O-]`
OUT: 6.46
